B1: library; numbered along this chain (parent)
chain: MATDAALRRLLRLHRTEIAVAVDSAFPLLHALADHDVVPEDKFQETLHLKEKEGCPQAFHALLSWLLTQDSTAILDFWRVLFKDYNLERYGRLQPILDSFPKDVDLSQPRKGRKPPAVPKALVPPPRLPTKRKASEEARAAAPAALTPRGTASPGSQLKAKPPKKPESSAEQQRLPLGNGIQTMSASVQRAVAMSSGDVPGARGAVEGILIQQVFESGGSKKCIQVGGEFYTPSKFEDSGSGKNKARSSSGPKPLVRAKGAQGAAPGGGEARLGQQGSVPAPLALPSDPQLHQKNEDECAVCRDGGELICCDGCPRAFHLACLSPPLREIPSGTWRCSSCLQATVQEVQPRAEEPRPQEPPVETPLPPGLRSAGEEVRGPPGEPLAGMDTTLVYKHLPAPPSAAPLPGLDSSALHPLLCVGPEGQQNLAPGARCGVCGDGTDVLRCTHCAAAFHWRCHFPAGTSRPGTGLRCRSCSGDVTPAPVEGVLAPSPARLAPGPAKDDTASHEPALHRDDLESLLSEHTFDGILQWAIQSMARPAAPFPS

variants of: B1; assay: AIRE transcriptional activation functional score (insulin promoter-GFP; nonsense median 0, synonymous median 1) (normalised score); higher = higher AIRE activity (more reporter activation); conditions: with insulin promoter-GFP reporter in HEK293
readout-type: AIRE transcriptional activation functional score
Number only, please.

// solved cases for AIRE transcriptional activation functional score follow
- Q212S: 1.14
- A510H: 0.605
- W531V: -0.0485
- Q290E: 0.67
- K294T: 0.822

Query: AIRE transcriptional activation functional score; subject: `R149S`
1.26
